Target: Protein Tat (Human immunodeficiency virus type 1 group M subtype B (isolate HXB2)) (UniProt P04608)
Sequence (P04608 whole entry, looked up): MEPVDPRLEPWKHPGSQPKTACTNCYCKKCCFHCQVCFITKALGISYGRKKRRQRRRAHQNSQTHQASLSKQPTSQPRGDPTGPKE
Test: inhibitors of Tat binding to TAR RNA, dose response, counter-screen for Vif-APOBEC3G degradation inhibitor project, biochemical, fluorescence polarization, FAM-labeled TAR RNA (AID 1117361)
measure: pIC50
Lab note: report pIC50 as minus log10 of the concentration in molar units, number only.

### Prompt // fetch pIC50 given entry CC1=CC2(O)OCCN(CCO)C2=CC1=O (stereo not drawn)
### Response 4.46

### Prompt // fetch pIC50 given entry `CCOc1cc(N2CCOCC2)c(OCC)cc1NS(=O)(=O)c1ccc(Cl)s1`
### Response 4.83

### Prompt // fetch pIC50 given entry `CN(CC(=O)Nc1cccc(F)c1)C(=O)c1cccc(-n2cccc2)c1`
### Response 4.39

### Prompt // fetch pIC50 given entry `O=C(N/N=C/C(Br)=C/c1ccccc1)c1cc(-c2ccco2)[nH]n1`
### Response 5.07

### Prompt // fetch pIC50 given entry CCCC(=Nc1ccc(N)cc1)C1=C(O)C(C(=O)OC)C(C)(C)CC1=O (stereo not drawn)
### Response 5.16

### Prompt // fetch pIC50 given entry `CNc1ccc(Br)cc(C(=O)/C=C/c2ccc(OC)cc2)c1=O`
### Response 5.04

### Prompt // fetch pIC50 given entry `O=c1[nH]c(=S)[nH]c2c1C(c1ccc(Br)cc1)c1c([nH]c(=S)[nH]c1=O)O2`
### Response 5.57

### Prompt // fetch pIC50 given entry `CC(=O)OCCCNc1cc(Sc2nc3ccccc3s2)c2nonc2c1[N+](=O)[O-]`
### Response 5.47

### Prompt // fetch pIC50 given entry `O=S(=O)(O)c1cc(O)c2cc(Nc3ccccc3)ccc2c1`
### Response 4.69

### Prompt // fetch pIC50 given entry `Cc1ccc(/C=c2\sc3nc(-c4cccs4)nn3c2=O)o1`
### Response 4.87

### Prompt // fetch pIC50 given entry `O=C(NN1C(=O)/C(=C/C=C/c2ccco2)SC1=S)c1ccncc1`
### Response 5.57

### Prompt // fetch pIC50 given entry `Cc1cc(C(=O)Nc2sc3c(c2C#N)CCCCC3)cs1`
### Response 4.63

### Prompt // fetch pIC50 given entry `O=[N+]([O-])c1cc(CN2CCCC2)c2cccnc2c1O`
### Response 5.05

====

Exercise: state measured IC50 for each of the compounds provided.
Target: Protein Tat (Human immunodeficiency virus type 1 group M subtype B (isolate HXB2))
Assay: inhibitors of Tat binding to TAR RNA, dose response, counter-screen for Vif-APOBEC3G degradation inhibitor project, biochemical, fluorescence polarization, FAM-labeled TAR RNA (AID 1117361)

### Prompt // fetch IC50 given entry `NC(=O)/C(=C/c1ccco1)C(N)=S`
### Response 12 µM

### Prompt // fetch IC50 given entry CC1CC(=O)c2c(cc3c(-c4c(O)cc(O)c5c(O)c6c(cc45)OC(C)CC6=O)c(O)cc(O)c3c2O)O1 (configuration not stated)
### Response 7.62 µM

### Prompt // fetch IC50 given entry `Cc1cc(/C=C2\C(=O)NC(=O)N(c3cccc(F)c3)C2=O)c(C)n1-c1cc(C(=O)O)cc(C(=O)O)c1`
### Response 2.95 µM

### Prompt // fetch IC50 given entry COC(=O)C1C(O)C(C)C(O)C(C)(O)/C=C\C=C(/C)C(=O)Nc2c(C)c(OC(C)=O)c3c(c2O)C(=O)C(C)=C2OCOC(=C23)/C(C)=C/C(C)(O)C(O)C(C)C1O (configuration not stated)
### Response 54.6 µM

### Prompt // fetch IC50 given entry CCC(=Nc1ccc(N)cc1)C1=C(O)C(C(=O)OC)C(C)(C)CC1=O (configuration not stated)
### Response 5.48 µM

### Prompt // fetch IC50 given entry Cc1ccc(-n2nc(C)c(C3C(C#N)=C(N)Oc4c3c(=O)oc3ccccc43)c2Cl)cc1 (configuration not stated)
### Response 25.2 µM

### Prompt // fetch IC50 given entry CCOc1cc(N2CCOCC2)c(OCC)cc1NC(C)C(=O)N1CCN(CC)CC1 (configuration not stated)
### Response 78.8 µM

All values here come from PubChem BioAssay AID1117361.
